Attribution: patent US20260132197A1

Biological target: T1, wild type human CD47 (Acro Biosystems, cat. no. CD7-H5227) (human, UniProt Q08722 19-139)
T1 construct: Bought protein used as SPR analyte; also called Human CD47 wt; wild-type CD47
T1 sequence (Q08722 19-139 limits assumed): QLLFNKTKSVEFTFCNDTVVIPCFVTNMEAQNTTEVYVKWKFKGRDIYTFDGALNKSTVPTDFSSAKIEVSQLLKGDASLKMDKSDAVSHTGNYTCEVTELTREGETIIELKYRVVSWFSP
Test: SPR, IgG captured, CD47 in flow; exp 4;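 note: rates fitted from SPR association and dissociation curves, KD estimated from them, the other target is a CD47 C33G mutein, used to obtain true monovalent affinity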
Measured Quantity: kon (M⁻¹ s⁻¹)
Use M⁻¹ s⁻¹ as the unit, but write only the number.

// sample chimeric antibody 108C10A6 (antibody, V domains shown, Chimeric antibody with mouse variable domains; captured through human Fc; also called VH / VL) VH: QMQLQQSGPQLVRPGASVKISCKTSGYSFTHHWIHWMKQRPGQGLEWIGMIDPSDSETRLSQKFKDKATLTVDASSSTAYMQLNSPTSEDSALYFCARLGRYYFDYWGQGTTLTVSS VL: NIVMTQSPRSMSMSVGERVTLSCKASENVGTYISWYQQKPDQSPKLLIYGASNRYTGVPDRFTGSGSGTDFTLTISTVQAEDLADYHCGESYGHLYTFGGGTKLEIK , its kon was 1.8e+06

// sample 108VH10.Mp / 108VL10.Me (antibody, V domains shown, 4D5-framework series; constant regions not restated for this series; also called VH10.Mp VL10.Me) VH: EVQLVESGGGLVQPGGSLRLSCAASGFTFSHHWIHWVRQAPGKGLEWVAMIDASDSETRLVDSFKGRFTISADTSKNTAYLQMNSLRAEDTAVYYCSRLGRYYFDYWGQGTLVTVSS VL: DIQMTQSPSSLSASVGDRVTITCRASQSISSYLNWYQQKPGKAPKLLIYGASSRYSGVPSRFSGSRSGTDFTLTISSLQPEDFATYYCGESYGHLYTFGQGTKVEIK , its kon was 250000

// sample 108VH10.Mq / 108VL10.Me (antibody, V domains shown, 4D5-framework series; constant regions not restated for this series; also called VH10.Mq VL10.Me) VH: EVQLVESGGGLVQPGGSLRLSCAASGFTFSHHWIHWVRQAPGKGLEWVAMIDASDSETRLSDSVKGRFTISADTSKNTAYLQMNSLRAEDTAVYYCSRLGRYYFDYWGQGTLVTVSS VL: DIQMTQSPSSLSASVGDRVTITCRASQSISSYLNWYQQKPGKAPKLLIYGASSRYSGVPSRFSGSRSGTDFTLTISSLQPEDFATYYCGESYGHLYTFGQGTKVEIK , its kon was 600000
